biological target: T1, HLA-A*02:01 (human); assay: UV-ligand exchange, anti-b2m ELISA; peptide exchange yield grade (+ >=10%, ++ >=20%, +++ >=50, ++++ >=75%)
T1 construct: Captured on streptavidin plates and detected with anti-b2m; also called peptide-receptive MHC molecules; MHC class I
property: peptide exchange yield

binder | data_value
YQDLLNVKM | 50 to 75%
ALLDGGSEAYWRV | 50 to 75%
SLDGTELQL | 50 to 75%
KITEAIQYV | 50 to 75%
SLSPVILGV | ≥ 75%

Data request: I'd like to know its peptide exchange yield. The binder in question is YTQPFSHYGQAL
Data returned: 50 to 75%

Data request: Try SMHQMLDQTL next.
Data returned: 20 to 50%

Data request: How about this binder: SLDGFTIQV
Data returned: 20 to 50%

Data request: Now consider SLAESLDQA and answer again.
Data returned: 50 to 75%

Data request: Similarly, LLRFSQDNA ?
Data returned: 50 to 75%

Data request: How about this binder: SLVSEQLEPA
Data returned: 50 to 75%

Data request: Now consider LILESIPVV and answer again.
Data returned: 20 to 50%

Data request: Note, next up: VVVTGLTLV
Data returned: 20 to 50%

Data request: Quick one: KLSDSATYL
Data returned: 50 to 75%

Data request: What do we get for AVLPHVDQV ?
Data returned: 50 to 75%

Data request: YVVGGFLYQRL ?
Data returned: 50 to 75%

Data request: // query: SLDENSDQQV
Data returned: 50 to 75%

Data request: Repeat for the following binder: ALYEYQPLQI
Data returned: 20 to 50%

Data request: Same again, this time with SIFEGLLSGV
Data returned: 20 to 50%

Data request: // same read-out, input: SLLDTLREV
Data returned: 50 to 75%

Data request: For TQTTHELTI then?
Data returned: 50 to 75%

Data request: Follow-up entry: MLTELEKAL
Data returned: 20 to 50%
